- test.details: Acid (HClO4) catalyzed demetalation kinetics
- Format: physicochemical
- condition.set: aqueous HClO4 solution, pH 1; read-out: t1/2 [pH 1] (converted)
experimental.endpoint: half-life at 0.173 mM
Express the reported value numerically, then name its unit.

Ask | State, in one line, measured half-life at 0.173 mM of CN1C(=O)[N]2C(C)(C)C(=O)[N]3c4ccc([N+](=O)[O-])cc4[N]4C(=O)C(C)(C)[N](C1=O)[Fe]342[Cl]
Reply | 79.8 min

Ask | Given the compound CN1C(=O)[N]2C(C)(C)C(=O)[N]3c4ccccc4[N]4C(=O)C(C)(C)[N](C1=O)[Fe]342[Cl] , write its reported half-life at 0.173 mM.
Reply | 24 min
